# test_details: pKa determination by acid/base titration
# Type: physicochemical
# condition_summary: distilled water; measured; read-out: quinolyl N pKa
recorded_endpoint: pKa
One number for each entry.

CCN(CC)CCCCSc1ccnc2cc(Cl)ccc12 [compound 98]    4.1

Next up:
Look up pKa: CCN(CC)CCCCOc1ccnc2cc(Cl)ccc12 [compound 93] 4.5

====

# Tested on: Dd2 (chloroquine resistant strain of P. falciparum)
# test_details: SYBR Green I antiplasmodial assay, strain Dd2
# Assay type: cell-based, Plasmodium falciparum
# condition_summary: CQR strain Dd2; read-out: IC50 against Dd2
# Experimental: Bennett T. N.; Paguio, M.; Gligorijevic, B.; Seudieu, C.; Kosar, A. D.; Davidson, E.; Roepe, P. D. Novel, rapid, and inexpensive cell-based quantification of antimalarial drug efficacy. Antimicrob. Agents Chemother. 2004, 48, 1807-1810; Smilkstein, M.; Sriwilaijaroen, N.; Kelly, J. X.; Wilairat, P.; Riscoe, M. Simple and inexpensive fluorescence-based technique for high-throughput antimalarial drug screening. […] Drug activities were assessed and IC50 were quantified essentially as described previously. […]
recorded_endpoint: pIC50
Give bare numbers, as −log10 of the molar value.

Look up pIC50: CCN(CCNc1ccnc2cc(Cl)ccc12)CCNS(=O)(=O)c1cccc2c(N(C)C)cccc12 [compound 23] 7.64
